System: Staphylococcus aureus (Sa)
Assay: Minimum inhibitory concentration (MIC) in nutrient agar
Type: cell-based, Staphylococcus aureus ATCC 6538
Conditions: pH 8.2, nutrient agar, 30° C., 48 hours, read-out: Minimum Inhibitory Concentration, Sa
observation type: MIC

compound: COc1ccc2nc3c(nc2c1)SC(C#N)=C(C#N)S3 [J]
MIC: 25 µg/mL
//
compound: COC(=O)c1ccc2nc3c(nc2c1)SC(C#N)=C(C#N)S3 [I]
MIC: 100 µg/mL
//
compound: Cc1cc2nc3c(nc2cc1[N+](=O)[O-])SC(C#N)=C(C#N)S3 [F]
MIC: 50 µg/mL
//
compound: N#CC1=C(C#N)Sc2nc3cc([N+](=O)[O-])c(Cl)cc3nc2S1 [G]
MIC: 50 µg/mL
//
compound: N#CC1=C(C#N)Sc2nc3cc(C#N)ccc3nc2S1 [H]
MIC: 50 µg/mL
//
compound: N#CC1=C(C#N)Sc2nc3cc(C(F)(F)F)ccc3nc2S1 [K]
MIC: 100 µg/mL

Query string: GET /values?readout=MIC&item= N#CC1=C(C#N)Sc2nc3cc([N+](=O)[O-])ccc3nc2S1 [A]
Result string: 100 µg/mL

Query string: And the next one, N#CC1=C(C#N)Sc2nc3cc(Cl)ccc3nc2S1 [C] ?
Result string: 50 µg/mL

Taken from patent US5200409A.
